TARGET DESC: Calcium/calmodulin-dependent protein kinase type IV (Homo sapiens) (UniProt Q16566);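 note: each value is a mean inhibition of CAMK4, part of the GSK PKIS kinase screening panel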
Sequence (Q16566 whole entry): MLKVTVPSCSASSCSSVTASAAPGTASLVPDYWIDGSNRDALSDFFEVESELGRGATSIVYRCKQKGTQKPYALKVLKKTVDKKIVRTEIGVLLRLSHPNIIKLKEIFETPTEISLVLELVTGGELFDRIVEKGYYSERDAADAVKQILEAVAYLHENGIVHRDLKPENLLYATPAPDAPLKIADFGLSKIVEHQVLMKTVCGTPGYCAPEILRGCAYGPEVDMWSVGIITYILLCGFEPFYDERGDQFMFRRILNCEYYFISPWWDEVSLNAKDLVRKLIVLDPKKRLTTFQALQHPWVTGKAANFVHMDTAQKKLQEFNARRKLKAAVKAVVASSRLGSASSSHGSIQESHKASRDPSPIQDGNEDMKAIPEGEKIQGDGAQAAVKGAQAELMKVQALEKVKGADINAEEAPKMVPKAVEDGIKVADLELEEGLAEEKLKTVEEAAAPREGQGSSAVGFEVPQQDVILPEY
DETAILS: at 0.1 µM
Kindly supply the reported inhibition values for the records listed here.
One number for each entry, in %.

Reference set, count: 5
{"columns": ["COMPOUND", "inhibition [%]"],
 "data": [
  ["CS(=O)(=O)CCNCc1ccc(-c2ccc3ncnc(Nc4ccc(OCc5cccc(C(F)(F)F)c5)cc4)c3c2)o1", -2.56],
  ["O=C(O[C@H]1CN[C@H](C#Cc2cc3ncnc(Nc4ccc5c(cnn5Cc5ccccc5)c4)c3s2)C1)N1CCOCC1", 0.67],
  ["N#Cc1ccc2c(-c3ccnc(NC4CC4)n3)c(-c3ccc(F)cc3)nn2c1", 0.17],
  ["CNC(=O)c1sc(-n2cnc3cc(OC)c(OC)cc32)cc1OCc1ccccc1C(F)(F)F", 0.67],
  ["CCS(=O)(=O)c1ccc(OC)c(Nc2ncc(-c3cccc(F)c3)o2)c1", -0.92]
]}

Please go through the list and note inhibition for each compound.
1. c1cnn2ncc(-c3ccnc(NCCCN4CCOCC4)n3)c2c1
2. Fc1ccc(Nc2nccc(-c3c(-c4ccc(C(F)(F)F)cc4)nn4ncccc34)n2)cc1F

## Output
1. -0.02
2. -0.48

* * *

TARGET DESC: Phosphorylase b kinase gamma catalytic chain, skeletal muscle/heart isoform (Homo sapiens);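 note: values are averaged percent inhibition of PHKG1 kinase activity, from the GSK PKIS inhibitor-set screen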
DETAILS: at 0.1 µM
ENDPOINT NAME: inhibition

{"columns": ["STRUCTURE", "inhibition"],
 "data": [
  ["CS(=O)(=O)Nc1ccc(-c2cc(-c3ccccc3)cc(C(N)=O)c2N)cc1", "1.44%"],
  ["COc1ccc(Nc2ncc(-c3ccccc3)o2)cc1OC", "5.28%"],
  ["O=C(O[C@H]1CN[C@H](C#Cc2cc3ncnc(Nc4ccc5c(cnn5Cc5ccccc5)c4)c3s2)C1)N1CCOCC1", "2.11%"],
  ["CN1CCN(Cc2ccc(-c3cc4ncnc(Nc5ccc(OCc6cccc(F)c6)c(Cl)c5)c4s3)o2)CC1", "4.48%"],
  ["O=C(O[C@H]1CN[C@H](C#Cc2cc3ncnc(Nc4ccc5c(ccn5Cc5cc(F)ccc5F)c4)c3s2)C1)N1CCOCC1", "3.09%"],
  ["CCn1c(-c2nonc2N)nc2cncc(C(=O)NCCNC)c21", "4.55%"],
  ["FC(F)(F)CNc1nccc(-c2cnn3ncccc23)n1", "3.02%"],
  ["NS(=O)(=O)c1ccc(N/N=C2\\C(=O)Nc3ccc(C(=O)NCc4ccncc4)cc32)cc1", "5.19%"],
  ["CNC(=O)c1cncc(/C=C/c2ccccc2C)c1", "4.3%"]
]}

## Input Endpoint output: inhibition of Cn1c(-c2nonc2N)nc2cnccc21 . Value?
## Output 1.82%

* * *

TARGET DESC: Mitogen-activated protein kinase 14 (Homo sapiens);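 note: values are mean percent inhibition of p38alpha kinase activity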
DETAILS: at 1 µM
inhibition vs 7%: at or above is TRUE, below is FALSE.

Please review the following examples before continuing.
{"columns": ["MOLECULE", "CAT"],
 "data": [
  ["Fc1cccc(COc2ccc(Nc3ncncc3C#Cc3ccccc3)cc2Cl)c1", "TRUE"],
  ["COc1c(C(N)=O)cc(-c2ccc(Cl)cc2)cc1-c1ccc(S(N)(=O)=O)cc1", "TRUE"],
  ["COc1cc(N2CCN(C(C)C)CC2)ccc1Nc1nc(Nc2cccc(F)c2C(=O)O)c2cc[nH]c2n1", "TRUE"],
  ["CC1=C(C(=O)Nc2ccc3[nH]ncc3c2)C(c2ccc(F)cc2)N=C(c2ccc(C(F)(F)F)nc2)N1 (centres undefined)", "TRUE"]
]}

## Input Does the molecule CCOc1ccc2c(-c3ccnc(Nc4cc(OC)cc(C(F)(F)F)c4)n3)cnn2n1 have recorded inhibition that is 7% or more?
## Output FALSE

## Input One more molecule: CNC(=O)c1ncccc1Nc1nc(Nc2cc3c(cc2OC)CCCN3C(=O)CN(C)C)nc2[nH]ccc12
## Output TRUE

## Input Queued: Cc1cc(O)cc(C)c1/C=C/c1cncc(C(=O)OC(C)(C)C)c1
## Output FALSE

## Input Repeat with NS(=O)(=O)c1ccc(N/N=C2\C(=O)Nc3ccc(C(=O)NCc4ccncc4)cc32)cc1
## Output FALSE
